Below, each entry is listed with its recorded glycan array binding signal (z-score).
Molecular target: Neu5Gc(a2-3)Gal(b1-4)Glc
Assay: glycan array binding signal (z-score within array); higher = stronger binding
Details: glycan notation: IUPAC condensed, linker removed
About 410 targets per protein were measured; listed, in parts, are those with the strongest signals and a random draw of the rest.
Lab note: record just the number, no unit beside it.

Some solved cases for reference:
INSERT INTO assay_data (binder, assaymetric, reportedvalue) VALUES
  ('OVGAL11 (Ovis aries), AAF64320 (protein) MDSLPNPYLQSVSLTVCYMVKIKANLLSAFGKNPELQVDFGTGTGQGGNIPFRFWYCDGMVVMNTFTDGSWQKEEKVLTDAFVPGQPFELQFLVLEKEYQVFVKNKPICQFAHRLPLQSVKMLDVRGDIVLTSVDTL', 'glycan array binding signal (z-score)', -0.214),
  ('EPL1 (Trichoderma atroviride), A0PCX2 (protein) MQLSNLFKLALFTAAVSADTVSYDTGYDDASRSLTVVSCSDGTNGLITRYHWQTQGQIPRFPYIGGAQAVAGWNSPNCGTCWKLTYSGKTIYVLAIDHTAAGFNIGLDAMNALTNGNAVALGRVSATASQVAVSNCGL', 'glycan array binding signal (z-score)', -0.246),
  ('SLR2P2A3 (Tachypleus tridentatus), TAL2_TACTR (protein) MEKGTPPTHDSDNWMGRAKKIGNGGWNQFQFLFFDPNGYLYAVSKDKLYKASPPQSDTDNWIARATEIGSGGWSGSKFLFFHPNGYLYAVHGQRLYKALPPVSNQD', 'glycan array binding signal (z-score)', -0.253),
  ('Actd5 (Actinidia), P84527 (protein) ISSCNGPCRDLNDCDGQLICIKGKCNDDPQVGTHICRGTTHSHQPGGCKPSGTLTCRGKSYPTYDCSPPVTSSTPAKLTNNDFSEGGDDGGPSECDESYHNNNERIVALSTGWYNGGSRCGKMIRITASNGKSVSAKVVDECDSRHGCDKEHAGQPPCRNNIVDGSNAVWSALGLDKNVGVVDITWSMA', 'glycan array binding signal (z-score)', 0.046),
  ('EUL D1A second (Oryza sativa) (protein) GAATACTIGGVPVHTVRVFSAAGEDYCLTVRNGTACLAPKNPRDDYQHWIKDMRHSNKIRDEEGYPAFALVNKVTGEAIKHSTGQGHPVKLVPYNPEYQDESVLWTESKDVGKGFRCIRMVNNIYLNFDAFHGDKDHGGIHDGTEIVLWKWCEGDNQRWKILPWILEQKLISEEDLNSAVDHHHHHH', 'glycan array binding signal (z-score)', 0.509);

Q: Item LlpB (Pseudomonas fluorescens) (protein) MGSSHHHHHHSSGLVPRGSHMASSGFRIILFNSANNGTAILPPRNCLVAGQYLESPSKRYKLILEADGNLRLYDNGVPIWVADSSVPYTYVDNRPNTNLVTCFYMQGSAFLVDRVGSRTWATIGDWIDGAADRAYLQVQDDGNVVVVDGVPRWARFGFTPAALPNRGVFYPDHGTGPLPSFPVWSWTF : provide glycan array binding signal (z-score)
A: 0.956

Q: Item RegIIIgamma (Mus musculus), O09049 (protein) MLPRITITIMSWMLLSCLMLLSQVQGEVAKKDAPSSRSSCPKGSRAYGSYCYALFSVSKNWYDADMACQKRPSGHLVSVLSGAEASFLSSMIKSSGNSGQYVWIGLHDPTLGYEPNRGGWEWSNADVMNYINWETNPSSSSGNHCGTLSRASGFLKWRENYCNLELPYVCKFKA : provide glycan array binding signal (z-score)
A: -0.148

Cited source: the supplement of paper PMC8728848
